Test system: WNV/NY99
Test: Dose-response EC50, WNV
Assay type: cell-based
Settings: West Nile virus, Vero 76, Vero76, MOI 0.01, Table 3
VALUE_TYPE: EC50 (nM)

>>> numeric_value("CN(C(=O)Cc1sccc1F)c1nc2c(s1)CCCC2 [ML416]")
2400

----------
Test system: Vero 76 cells
VALUE_TYPE: CC50

>>> result("CN(C(=O)Cc1ccc(C(F)(F)F)s1)c1nc2c(s1)CCCC2")
"> 50 µM"
>>> result("O=C(Cc1ccccn1)N(c1ccccc1)c1nc2c(s1)CCCC2")
"33.2 µM"
>>> result("O=C(Cc1sccc1Br)N(c1ccccc1)c1nc2c(s1)CCCC2")
"22.4 µM"
>>> result("CN(C(=O)Cc1sccc1C(F)(F)F)c1nc2c(s1)CCCC2")
"6.4 µM"
>>> result("Cc1cccc(CC(=O)N(C)c2nc3c(s2)CCCC3)c1")
"> 50 µM"
>>> result("CN(C(=O)Cc1sccc1F)c1nc2c(s1)CCCC2")
"> 50 µM"
>>> result("CCOc1ccc(CC(=O)N(C)c2nc3c(s2)CCCC3)cc1")
"> 50 µM"
>>> result("CCOc1ccccc1CC(=O)N(c1nc2c(s1)CCCC2)C1CCOCC1")
"> 50 µM"
>>> result("CCOc1ccccc1CC(=O)N(c1ccc(OC)cc1)c1nc2c(s1)CCCC2")
"> 50 µM"
>>> result("COCc1ccccc1CC(=O)N(C)c1nc2c(s1)CCCC2")
"> 50 µM"

----------
Tested on: pVSV-luc
Test: microbe, parasite or virus in culture
Format: cell-based, Vesicular stomatitis virus
Conditions: Vesicular stomatitis virus, BHK, read-out: EC50 pVSV-Gp
pEC50: −log10 of the molar value.
VALUE_TYPE: pEC50

>>> numeric_value("CN(C(=O)Cc1sccc1F)c1nc2c(s1)CCCC2")
5.08

----------
Test system: pVSV-luc
Assay: microbe, parasite or virus in culture
Format: cell-based, Vesicular stomatitis virus
Settings: Vesicular stomatitis virus, in Mus musculus
VALUE_TYPE: EC50

>>> result("CN(C(=O)Cc1sccc1F)c1nc2c(s1)CCCC2 [ML416]")
"> 50 µM"

----------
Test system: VEEV (TC83 strain)
Assay: microbe, parasite or virus in culture
Type: cell-based, Venezuelan equine encephalitis virus
Settings: read-out: VEEV (TC83 strain) CPE Assay Potency mean EC50
pEC50: −log10 of the molar value.
# if value of pEC50 reaches 5, tag 1; if it stays below, tag 0

>>> category("CN(C(=O)Cc1cc(F)cs1)c1nc2c(s1)CCCC2")
1
>>> category("CCOc1ccc(CC(=O)N(C)c2nc3c(s2)CCCC3)cc1")
0
>>> category("Cc1ccc(CC(=O)N(C)c2nc3c(s2)CCCC3)cc1")
1
>>> category("O=C(Cc1ccccn1)N(c1ccccc1)c1nc2c(s1)CCCC2")
0
>>> category("CCOc1ccccc1CC(=O)N(c1nc2c(s1)CCCC2)c1ccccc1OC")
0
>>> category("Cc1cccc(CC(=O)N(C)c2nc3c(s2)CCCC3)c1")
1
>>> category("Cc1ccc(CC(=O)N(c2ccccc2)c2nc3c(s2)CCCC3)s1")
1
>>> category("Cc1ccccc1CC(=O)N(C)c1nc2c(s1)CCCC2")
1
>>> category("CCOc1ccccc1CC(=O)N(c1nc2c(s1)CCCC2)C(C)C")
0
>>> category("O=C(Cc1cccs1)Nc1nc2c(s1)CCCC2")
1

----------
Test: in vitro
Conditions: African green monkey, VERO Cell Cytotoxicity Assay mean CC50
VALUE_TYPE: CC50 (µM)

>>> numeric_value("CN(C(=O)Cc1sccc1F)c1nc2c(s1)CCCC2 [Entry 33]")
41.4

----------
Parameter CC50, tested on Vero 76 cells, listed per item.
VALUE_TYPE: CC50

>>> result("CN(C(=O)Cc1cc(F)cs1)c1nc2c(s1)CCCC2 [Entry 32]")
"22.5 µM"
>>> result("Cc1ccc(C)c(CC(=O)N(C)c2nc3c(s2)CCCC3)c1 [Entry 13]")
"> 50 µM"
>>> result("Cc1ccc(CC(=O)N(c2ccccc2)c2nc3c(s2)CCCC3)s1 [Entry 29]")
"7.8 µM"
>>> result("O=C(Cc1ccc(Br)s1)N(c1ccccc1)c1nc2c(s1)CCCC2 [Entry 27]")
"17.2 µM"
>>> result("COc1csc(CC(=O)N(C)c2nc3c(s2)CCCC3)c1 [Entry 31]")
"36.1 µM"
>>> result("CCOc1ccccc1CC(=O)N(CCOC)c1nc2c(s1)CCCC2 [Entry 16]")
"> 50 µM"
>>> result("CCOc1ccccc1CC(=O)N(c1nc2c(s1)CCCC2)C(C)C [Entry 14]")
"> 50 µM"
>>> result("O=C(Cc1ccccc1C(F)(F)F)N(c1ccccc1)c1nc2c(s1)CCCC2 [Entry 19]")
"> 50 µM"
>>> result("Cc1csc(CC(=O)N(C)c2nc3c(s2)CCCC3)c1 [Entry 30]")
"36.4 µM"
>>> result("O=C(Cc1ccco1)N(c1ccccc1)c1nc2c(s1)CCCC2 [Entry 26]")
"25.8 µM"

----------
System: VEEV (TC83 strain)
Assay: microbe, parasite or virus in culture
Format: cell-based, Venezuelan equine encephalitis virus
Settings: read-out: VEEV (TC83 strain) CPE Assay Potency mean EC50
VALUE_TYPE: EC50 (nM)

>>> numeric_value("COc1ccccc1CC(=O)N(c1ccccc1)c1nc2c(s1)CCCC2")
700
>>> numeric_value("CCOc1ccccc1CC(=O)N(c1cccc(OC)c1)c1nc2c(s1)CCCC2")
1700
>>> numeric_value("O=C(Cc1ccc(Br)s1)N(c1ccccc1)c1nc2c(s1)CCCC2")
20
>>> numeric_value("COc1csc(CC(=O)N(C)c2nc3c(s2)CCCC3)c1")
50
>>> numeric_value("Cc1ccc(C)c(CC(=O)N(C)c2nc3c(s2)CCCC3)c1")
11700
>>> numeric_value("O=C(Cc1ccco1)N(c1ccccc1)c1nc2c(s1)CCCC2")
6800

----------
Tested on: VEEV (TC83 strain)
Assay: microbe, parasite or virus in culture
Assay type: cell-based, Venezuelan equine encephalitis virus
Details: read-out: VEEV (TC83 strain) CPE Assay Potency mean EC50
Parameter EC50: see the listing below.
VALUE_TYPE: EC50 (µM)

>>> numeric_value("CCOc1ccccc1CC(=O)N(CCOC)c1nc2c(s1)CCCC2")
10.9
>>> numeric_value("CCOc1ccccc1CC(=O)N(c1nc2c(s1)CCCC2)C1CCOCC1")
12.5
>>> numeric_value("COCc1ccccc1CC(=O)N(C)c1nc2c(s1)CCCC2")
9.1
>>> numeric_value("O=C(Cc1ccccc1C(F)(F)F)N(c1ccccc1)c1nc2c(s1)CCCC2")
1.2
>>> numeric_value("CCOc1ccccc1CC(=O)N(c1cccnc1)c1nc2c(s1)CCCC2")
2.5
>>> numeric_value("CCOc1ccccc1CC(=O)N(c1ccc(OC)cc1)c1nc2c(s1)CCCC2")
4.6
>>> numeric_value("O=C(Cc1sccc1Br)N(c1ccccc1)c1nc2c(s1)CCCC2")
0.02
>>> numeric_value("Cc1csc(CC(=O)N(C)c2nc3c(s2)CCCC3)c1")
0.02

----------
Test: in vitro
Conditions: African green monkey, CC50 μM (Vero76)
VALUE_TYPE: CC50

>>> result("CN(C(=O)Cc1sccc1F)c1nc2c(s1)CCCC2")
"> 50 µM"

----------
System: pVSV-luc
Test: microbe, parasite or virus in culture
Type: cell-based, Vesicular stomatitis virus
Details: Vesicular stomatitis virus, HEK-293T, read-out: EC50 pVSV-Gp
VALUE_TYPE: EC50 (nM)

>>> numeric_value("CN(C(=O)Cc1sccc1F)c1nc2c(s1)CCCC2 [ML416]")
170
